# Tested on: NCI-H211 complex spheroid viability
# protocol: Anticancer human tumor NCI-H211 cell line growth inhibition [LSD1];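 also: luminescent viability read after seven days of drug exposure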;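 as to viability, T/C: 100% = DMSO vehicle control viability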
# run parameters: second compound 0.1 µM; first compound 0.0316 µM; stronger effect = lower value
value kind: viability, T/C (%)
Numbers only, in %.

Worked cases, answers included:
* Nc1ncn(C2CC(O)C(CO)O2)c(=O)n1 (stereo unspecified) + NC1CCC(NC2CC2c2ccccc2)CC1 | 7.44
* O=C(C=Cn1cnc(-c2cc(C(F)(F)F)cc(C(F)(F)F)c2)n1)NNc1cnccn1 + NC1CCC(NC2CC2c2ccccc2)CC1 | 11.6
* O=C(C=Cn1cnc(-c2cc(C(F)(F)F)cc(C(F)(F)F)c2)n1)NNc1cnccn1 + NC1CC1c1ccc(-c2cccc(O)c2)cc1 | 16.3
* CC(C)CC(NC(=O)CNC(=O)c1cc(Cl)ccc1Cl)B1OC(=O)CC(CC(=O)O)(C(=O)O)O1 (stereo unspecified) + NC1CC1c1ccc(-c2cccc(O)c2)cc1 | 29.3
* CC1(C)CCC(CN2CCN(c3ccc(C(=O)NS(=O)(=O)c4ccc(NCC5CCOCC5)c([N+](=O)[O-])c4)c(Oc4cnc5[nH]ccc5c4)c3)CC2)=C(c2ccc(Cl)cc2)C1 + NC1CC1c1ccc(-c2cccc(O)c2)cc1 | 43.8

# context switch: different molecule, same viability, T/C
Which value of viability, T/C has been reported for CC(C)CC(NC(=O)CNC(=O)c1cc(Cl)ccc1Cl)B1OC(=O)CC(CC(=O)O)(C(=O)O)O1 (stereo unspecified) + NC1CCC(NC2CC2c2ccccc2)CC1 in the records?
22.5

---

So I've got a bunch of molecules here, and I need their pIC50 values.
# Tested on: NCI-H211 complex spheroid viability
# protocol: Anticancer human tumor NCI-H211 cell line growth inhibition [LSD1];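 also: luminescent viability read after seven days of drug exposure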
# run parameters: curve of first compound; second compound 1 µM
pIC50: −log10 of the molar value.

- CC(C)c1c(-c2ccccc2)nc2c(C#N)c[nH]n2c1=O + NC1CCC(NC2CC2c2ccccc2)CC1: < 5.00

The following molecules each have a reported value; give each one's pIC50.
1. COc1ccc([C@@H](O)c2cc(-c3ncnc4cc(N5CCOCC5)ccc34)c(F)cc2Cl)nn1 + NC1CC1c1ccc(-c2cccc(O)c2)cc1
2. Nc1ncn(C2CC(O)C(CO)S2)c(=O)n1 (stereo not drawn) + NC1CCC(NC2CC2c2ccccc2)CC1
3. COc1cc(C2c3cc4c(cc3C(OC3OC5COC(C)OC5C(O)C3O)C3COC(=O)C23)OCO4)cc(OC)c1O (stereo not drawn) + NC1CCC(NC2CC2c2ccccc2)CC1
4. Cn1ncnc1C1c2n[nH]c(=O)c3cc(F)cc(c23)NC1c1ccc(F)cc1 (stereo not drawn) + NC1CCC(NC2CC2c2ccccc2)CC1
5. COc1cc(Nc2ncc3c(n2)-c2ccc(Cl)cc2C(c2c(F)cccc2OC)=NC3)ccc1C(=O)O + NC1CCC(NC2CC2c2ccccc2)CC1
6. O=C(C=Cc1cccc(S(=O)(=O)Nc2ccccc2)c1)NO + NC1CCC(NC2CC2c2ccccc2)CC1
7. Nc1ncn(C2CC(O)C(CO)O2)c(=O)n1 (stereo not drawn) + NC1CC1c1ccc(-c2cccc(O)c2)cc1

1: 5.45; 2: 9.00; 3: > 8.02; 4: 8.81; 5: > 8.50; 6: > 8.02; 7: > 8.50

---

# Tested on: NCI-H211 complex spheroid viability
# protocol: Anticancer human tumor NCI-H211 cell line growth inhibition [LSD1];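 also: luminescent viability read after seven days of drug exposure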;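 as to viability, T/C: 100% = DMSO vehicle control viability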
# run parameters: second compound 10 µM; first compound 0.1 µM; stronger effect = lower value
# Description: Multicellular complex tumor spheroid response to LSD1 Inhibitor Iadademstat in combination with a variety of drugs and investigational agents in selected tumor cell lines The current study was undertaken to assess response to LSD1 inhibitors in combination with standard-of-care drugs and investigational agents in solid tumor complex spheroid models as well as in the K-562 leukemia. […] Compounds. […] If the clinical Cmax for an agent had not been determined, the highest concentration tested was 10 microM. […]
Hi! Just check whether viability, T/C is below 5%. Below gives 1.0, equal or above gives 0.0.

- CC1COCCN1c1cc(C2(S(C)(=N)=O)CC2)nc(-c2ccnc3[nH]ccc23)n1 (stereo not given) + NC1CCC(NC2CC2c2ccccc2)CC1: 0.0
- CC(C)CC(NC(=O)C(Cc1ccccc1)NC(=O)c1cnccn1)B(O)O (stereo not given) + NC1CCC(NC2CC2c2ccccc2)CC1: 1.0

Strictly below 5% in viability, T/C? CC(C)CC(NC(=O)CNC(=O)c1cc(Cl)ccc1Cl)B1OC(=O)CC(CC(=O)O)(C(=O)O)O1 (stereo not given) + NC1CC1c1ccc(-c2cccc(O)c2)cc1
1.0

---

# System: NCI-H211 complex spheroid viability
# protocol: Anticancer human tumor NCI-H211 cell line growth inhibition [LSD1];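 also: luminescent viability read after seven days of drug exposure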
# run parameters: curve of first compound; second compound 1 µM
value kind: log10 IC50 (log10 of the value in nM)
Plainly stated, the numbers are log10 of IC50 given in nM.

Worked cases, answers included:
- CC(C)CC(NC(=O)C(Cc1ccccc1)NC(=O)c1cnccn1)B(O)O (centres undefined) + NC1CCC(NC2CC2c2ccccc2)CC1: 0.25
- CC(C)CC(NC(=O)CNC(=O)c1cc(Cl)ccc1Cl)B1OC(=O)CC(CC(=O)O)(C(=O)O)O1 (centres undefined) + NC1CCC(NC2CC2c2ccccc2)CC1: 1.18
- CC(C)c1c(-c2ccccc2)nc2c(C#N)c[nH]n2c1=O + NC1CC1c1ccc(-c2cccc(O)c2)cc1: 3.47
- CC1COCCN1c1cc(-c2ccnn2C)c2ccnc(-c3ccn[nH]3)c2n1 (centres undefined) + NC1CCC(NC2CC2c2ccccc2)CC1: 0.51
- CC(C)CC(NC(=O)CNC(=O)c1cc(Cl)ccc1Cl)B1OC(=O)CC(CC(=O)O)(C(=O)O)O1 (centres undefined) + NC1CC1c1ccc(-c2cccc(O)c2)cc1: 1.17
- Cn1ncnc1C1c2n[nH]c(=O)c3cc(F)cc(c23)NC1c1ccc(F)cc1 (centres undefined) + NC1CC1c1ccc(-c2cccc(O)c2)cc1: 0.02

# context switch: different compound, same log10 IC50
Which value of log10 IC50 has been reported for CCN(c1cc(-c2ccc(CN3CCOCC3)cc2)cc(C(=O)NCc2c(C)cc(C)[nH]c2=O)c1C)C1CCOCC1 + NC1CC1c1ccc(-c2cccc(O)c2)cc1 in the records?
2.06

---

# Test system: NCI-H211 complex spheroid viability
# protocol: Anticancer human tumor NCI-H211 cell line growth inhibition [LSD1]; active = viability on the fitted dose curve at most 10% of control; inactive = the rest;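 also: luminescent viability read after seven days of drug exposure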
# run parameters: second compound 0.1 µM; first compound 0.00949 µM
Classes to choose from: active, inactive

Recorded results for 4 compounds are shown here.
* COc1cc(C2c3cc4c(cc3C(OC3OC5COC(C)OC5C(O)C3O)C3COC(=O)C23)OCO4)cc(OC)c1O (configuration not stated) + NC1CCC(NC2CC2c2ccccc2)CC1 | inactive
* NS(=O)(=O)OCC1CC(n2ccc3c(NC4CCc5ccccc54)ncnc32)CC1O (configuration not stated) + NC1CCC(NC2CC2c2ccccc2)CC1 | inactive
* COc1cc(C2c3cc4c(cc3C(OC3OC5COC(C)OC5C(O)C3O)C3COC(=O)C23)OCO4)cc(OC)c1O (configuration not stated) + NC1CC1c1ccc(-c2cccc(O)c2)cc1 | inactive
* Nc1ccn(C2OC(CO)C(O)C2(F)F)c(=O)n1 (configuration not stated) + NC1CCC(NC2CC2c2ccccc2)CC1 | active

Look up the recorded call for Nc1ncn(C2CC(O)C(CO)S2)c(=O)n1 (configuration not stated) + NC1CC1c1ccc(-c2cccc(O)c2)cc1 in this test.
active

Look up the recorded call for CCN(c1cc(-c2ccc(CN3CCOCC3)cc2)cc(C(=O)NCc2c(C)cc(C)[nH]c2=O)c1C)C1CCOCC1 + NC1CC1c1ccc(-c2cccc(O)c2)cc1 in this test.
inactive

Look up the recorded call for CCc1c2c(nc3ccc(O)cc13)-c1cc3c(c(=O)n1C2)COC(=O)[C@]3(O)CC + NC1CC1c1ccc(-c2cccc(O)c2)cc1 in this test.
active

---

# Tested on: NCI-H211 complex spheroid viability
# protocol: Anticancer human tumor NCI-H211 cell line growth inhibition [LSD1];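 also: luminescent viability read after seven days of drug exposure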;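 as to viability, T/C: 100% = DMSO vehicle control viability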
# run parameters: second compound 0.1 µM; first compound 3.16 µM; stronger effect = lower value
So I've got a bunch of compounds here, and I need their viability, T/C values.
Give bare numbers, in %.

* COc1ccc([C@@H](O)c2cc(-c3ncnc4cc(N5CCOCC5)ccc34)c(F)cc2Cl)nn1 + NC1CCC(NC2CC2c2ccccc2)CC1 | 55.8

The following compounds each have a reported value; give each one's viability, T/C.
1. CC1(C)CCC(CN2CCN(c3ccc(C(=O)NS(=O)(=O)c4ccc(NCC5CCOCC5)c([N+](=O)[O-])c4)c(Oc4cnc5[nH]ccc5c4)c3)CC2)=C(c2ccc(Cl)cc2)C1 + NC1CC1c1ccc(-c2cccc(O)c2)cc1
2. O=C(c1cc(Cc2n[nH]c(=O)c3ccccc23)ccc1F)N1CCN(C(=O)C2CC2)CC1 + NC1CCC(NC2CC2c2ccccc2)CC1
3. COc1ccc([C@@H](O)c2cc(-c3ncnc4cc(N5CCOCC5)ccc34)c(F)cc2Cl)nn1 + NC1CC1c1ccc(-c2cccc(O)c2)cc1
4. CC1(C)CCC(CN2CCN(c3ccc(C(=O)NS(=O)(=O)c4ccc(NCC5CCOCC5)c([N+](=O)[O-])c4)c(Oc4cnc5[nH]ccc5c4)c3)CC2)=C(c2ccc(Cl)cc2)C1 + NC1CCC(NC2CC2c2ccccc2)CC1
5. CC1COCCN1c1cc(C2(S(C)(=N)=O)CC2)nc(-c2ccnc3[nH]ccc23)n1 (stereo unspecified) + NC1CC1c1ccc(-c2cccc(O)c2)cc1

1. 100
2. 2.42
3. 65.8
4. 86.2
5. 4.67

Where do these numbers come from? They come from PubChem BioAssay AID1918940.
